TARGET_OR_TEST_SYSTEM: GLP-1 receptor (UniProt P43220 24-463, limits assumed)
EXPERIMENT_SUMMARY: cell-based or functional assay
Ends that are not written are not given here.
MEASUREMENT_NAME: EC50 (pM)

HAEGTFTSDVSSYLEGQAAKEFIAWLVKGG-NH2 [GLP-1-VKGG30 (SEQ ID NO: 527)] | 25

a = HSQGTFTSDYSKYLDSRRAQDFVQWLMDGGPSSGAPPPS-NH2 [-MDGG30 PSSGAPPPS (SEQ ID NO: 525)]
b = HSQGTFTSDYSKYLDSRRAQDFVQWLVKGGPSSGAPPPS-NH2 [-VKGG30 PSSGAPPPS (SEQ ID NO: 524)]
c = HSQGTFTSDYSKYLDSRRAQDFVQWLMNGGPSSGAPPPS-NH2 [-MNGG30 PSSGAPPPS (SEQ ID NO: 522)]
d = HSQGTFTSDYSKYLDSRRAQDFVQWLMKGGPSSGAPPPS-NH2 [-MKGG30 PSSGAPPPS (SEQ ID NO: 523)]
-- ask Rank by EC50 (largest to smallest). Please respond with the labels ordered as the question requires.
-- reply d, c, b, a
